Target: Kappa-type opioid receptor (Homo sapiens)
Sequence (P41145 whole entry): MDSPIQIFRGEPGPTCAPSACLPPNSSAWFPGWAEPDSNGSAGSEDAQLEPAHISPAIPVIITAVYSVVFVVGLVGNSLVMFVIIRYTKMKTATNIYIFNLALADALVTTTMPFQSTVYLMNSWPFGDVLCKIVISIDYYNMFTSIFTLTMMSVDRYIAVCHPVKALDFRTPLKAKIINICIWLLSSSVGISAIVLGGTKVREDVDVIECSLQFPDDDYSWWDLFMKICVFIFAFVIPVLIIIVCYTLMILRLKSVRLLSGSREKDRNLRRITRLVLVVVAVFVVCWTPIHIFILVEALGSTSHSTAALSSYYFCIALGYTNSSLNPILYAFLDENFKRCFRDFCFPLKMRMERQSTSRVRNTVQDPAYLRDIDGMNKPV
Assay: Agonist activity at human kappa opioid receptor assessed as beta-arrestin recruitment up to 5 uM after 180 mins by chemiluminescence assay
Conditions: 3 h

>  <smiles-entry>
COc1cc(NC(=O)c2ccc(O)c(O)c2CC=C(C)C)c(C/C=C(\C)CCC=C(C)C)c(OC)c1

>  <Activity>
Not Active

$$$$
>  <smiles-entry>
COc1cc(NC(=O)c2cc(O)c(O)c(CC=C(C)C)c2)c(C/C=C(\C)CCC=C(C)C)c(OC)c1

>  <Activity>
Not Active

$$$$
>  <smiles-entry>
COc1cc(OC)c(C/C=C(\C)CCC=C(C)C)c(C(=O)Nc2ccc(O)c(O)c2CC=C(C)C)c1

>  <Activity>
Not Active

$$$$
>  <smiles-entry>
COc1cc(OC)c(C/C=C(\C)CCC=C(C)C)c(C(=O)Nc2cc(O)c(O)c(CC=C(C)C)c2)c1

>  <Activity>
Not Active

$$$$

###

Species on record: Chlorocebus aethiops
Test: Antagonist activity at OGFR in African green monkey COS7 cells harboring OGF assessed as increase in cell growth at 1 uM after 72 hrs by hemacytometric method
Active and inactive are the calls of the source. No cut-off for these calls is given here.
Hi there, use one of these labels in your reply, thanks! YES (active), NO (inactive)

>  <smiles-entry>
COc1cc(/C=C/c2ccc(O)c(O)c2CC=C(C)C)c(C/C=C(\C)CCC=C(C)C)c(OC)c1

>  <category-label>
YES

$$$$
>  <smiles-entry>
COc1cc(/C=C/c2cc(O)c(O)c(CC=C(C)C)c2)c(C/C=C(\C)CCC=C(C)C)c(OC)c1

>  <category-label>
NO

$$$$
>  <smiles-entry>
COc1cc(NC(=O)c2ccc(O)c(O)c2CC=C(C)C)c(C/C=C(\C)CCC=C(C)C)c(OC)c1

>  <category-label>
YES

$$$$
>  <smiles-entry>
O=C1CC[C@@]2(O)[C@H]3Cc4ccc(O)c5c4[C@@]2(CCN3CC2CC2)[C@H]1O5

>  <category-label>
YES

$$$$

[in] Test call for this compound, please: COc1cc(NC(=O)c2cc(O)c(O)c(CC=C(C)C)c2)c(C/C=C(\C)CCC=C(C)C)c(OC)c1
[out] YES

###

Molecular target: Delta-type opioid receptor (Homo sapiens) (UniProt P41143)
Sequence (P41143 whole entry): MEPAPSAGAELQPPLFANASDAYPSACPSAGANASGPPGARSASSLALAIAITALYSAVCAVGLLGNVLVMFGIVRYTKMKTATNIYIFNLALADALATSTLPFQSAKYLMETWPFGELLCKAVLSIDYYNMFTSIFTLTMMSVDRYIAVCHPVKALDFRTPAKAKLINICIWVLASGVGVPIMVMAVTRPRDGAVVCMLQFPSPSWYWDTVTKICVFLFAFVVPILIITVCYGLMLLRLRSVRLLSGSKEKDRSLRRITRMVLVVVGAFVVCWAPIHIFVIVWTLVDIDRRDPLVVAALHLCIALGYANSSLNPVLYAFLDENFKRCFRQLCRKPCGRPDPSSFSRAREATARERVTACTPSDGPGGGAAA
Assay: Antagonist activity at delta opioid receptor (unknown origin) up to 10 uM by GTPgammaS functional assay
The source made the active and inactive calls. The rule behind the calls is not given here.
assay-readout: inhibition

>  <smiles-entry>
COc1cc(OC)c(C/C=C(\C)CCC=C(C)C)c(C(=O)Nc2ccc(O)c(O)c2CC=C(C)C)c1

>  <study-system>
Delta-type opioid receptor (Homo sapiens) (UniProt P41143)

>  <assay-readout>
inhibition

>  <measurement>
inactive

$$$$
>  <smiles-entry>
COc1cc(NC(=O)c2ccc(O)c(O)c2CC=C(C)C)c(C/C=C(\C)CCC=C(C)C)c(OC)c1

>  <study-system>
Delta-type opioid receptor (Homo sapiens) (UniProt P41143)

>  <assay-readout>
inhibition

>  <measurement>
inactive

$$$$
>  <smiles-entry>
COc1cc(OC)c(C/C=C(\C)CCC=C(C)C)c(C(=O)Nc2cc(O)c(O)c(CC=C(C)C)c2)c1

>  <study-system>
Delta-type opioid receptor (Homo sapiens) (UniProt P41143)

>  <assay-readout>
inhibition

>  <measurement>
inactive

$$$$
>  <smiles-entry>
COc1cc(NC(=O)c2cc(O)c(O)c(CC=C(C)C)c2)c(C/C=C(\C)CCC=C(C)C)c(OC)c1

>  <study-system>
Delta-type opioid receptor (Homo sapiens) (UniProt P41143)

>  <assay-readout>
inhibition

>  <measurement>
inactive

$$$$

###

Molecular target: Kappa-type opioid receptor (Homo sapiens)
Assay: Antagonist activity at kappa opioid receptor (unknown origin) up to 10 uM by GTPgammaS functional assay
Calls of active or inactive are those of the source. No cut-off for these calls is given here.
assay-readout: inhibition

>  <smiles-entry>
COc1cc(OC)c(C/C=C(\C)CCC=C(C)C)c(C(=O)Nc2ccc(O)c(O)c2CC=C(C)C)c1

>  <measurement>
inactive

$$$$
>  <smiles-entry>
COc1cc(NC(=O)c2cc(O)c(O)c(CC=C(C)C)c2)c(C/C=C(\C)CCC=C(C)C)c(OC)c1

>  <measurement>
inactive

$$$$
>  <smiles-entry>
COc1cc(OC)c(C/C=C(\C)CCC=C(C)C)c(C(=O)Nc2cc(O)c(O)c(CC=C(C)C)c2)c1

>  <measurement>
inactive

$$$$
>  <smiles-entry>
COc1cc(NC(=O)c2ccc(O)c(O)c2CC=C(C)C)c(C/C=C(\C)CCC=C(C)C)c(OC)c1

>  <measurement>
inactive

$$$$
